Quick reference: pIC50 of the listed items.
System: OCI-LY10
Protocol description: CTG Cell Viability Assay - OCI-LY10
Assay type: cell-based, human
Conditions: Homo sapiens, OCI-Ly10, 96 h, OCI-LY10, 4 days; read-out: CTG Cell Viability Assay - OCI-LY10: Average external-IC50
pIC50: −log10 of the molar value.

[
  {
    "Compound": "CN(C(=O)c1cnn2ccc(N3CCOCC3)nc12)c1cn([C@H]2CC[C@H](CN3CCN(Cc4ccc(COc5cccc6c5CN(C5CCC(=O)NC5=O)C6=O)cc4)CC3)CC2)nc1C(F)F (stereo partly shown)",
    "pIC50": "> 7.30"
  },
  {
    "Compound": "Cn1c(=O)n(C2CCC(=O)NC2=O)c2cccc(CN3CCC(OC4CCN(C[C@H]5CC[C@H](n6cc(NC(=O)c7cnn8ccc(N9C[C@H]%10C[C@@H]9CO%10)nc78)c(C(F)F)n6)CC5)CC4)CC3)c21 (stereo partly shown)",
    "pIC50": "< 6.00"
  },
  {
    "Compound": "O=C1CCC(N2Cc3c(OCc4ccc(CN5CCN(C[C@H]6CC[C@H](n7cc(NC(=O)c8coc(-c9ccnc(NCC%10CC%10)c9)n8)c(C(F)F)n7)CC6)CC5)cc4)cccc3C2=O)C(=O)N1 (stereo partly shown)",
    "pIC50": "6.30 to 7.00"
  },
  {
    "Compound": "O=C1CCC(N2C(=O)c3cccc(NCCCOC4CCN(C[C@H]5CC[C@H](n6cc(NC(=O)c7cnn8ccc(N9CC%10(COC%10)C9)nc78)c(C(F)F)n6)CC5)CC4)c3C2=O)C(=O)N1 (stereo partly shown)",
    "pIC50": "7.00 to 7.30"
  }
]

Hello, I am looking for reported pIC50 with OCI-LY10 for Cn1c(=O)n(C2CCC(=O)NC2=O)c2cccc(CN3CCC(CN4CCC(n5cc(NC(=O)c6cnn7ccc(N[C@@H]8CCCC[C@@H]8O)nc67)c(C(F)F)n5)CC4)CC3)c21 (stereo partly shown) . Could you help?
> 7.30

Quick check: pIC50 on OCI-LY10, item Cn1c(=O)n(C2CCC(=O)NC2=O)c2ccc(CCCCOCCCCNCC(=O)N3CCN([C@H]4CC[C@H](Nc5ncnc6[nH]cc(C7CCOCC7)c56)CC4)CC3)cc21 (stereo partly shown) ?
7.00 to 7.30

Look up pIC50 with OCI-LY10 for this compound: COc1cc(C(=O)N2CCC(CCCN(C)C[C@H]3CC[C@H](n4cc(NC(=O)c5coc(-c6ccnc(NCC7CC7)c6)n5)c(C(F)F)n4)CC3)CC2)ccc1NC(=O)[C@@H]1N[C@@H](CC(C)(C)C)[C@](C#N)(c2ccc(Cl)cc2F)[C@H]1c1cccc(Cl)c1F
< 6.00

Please tell me: pIC50 of CN(CC1CCN(c2cccc3c2C(=O)N(C2CCC(=O)NC2=O)C3=O)CC1)C[C@H]1CC[C@H](n2cc3cc(NC(=O)c4cccc(C(F)(F)F)n4)c(C(C)(C)O)cc3n2)CC1 (stereo partly shown) , system OCI-LY10?
< 6.00

Could you share what pIC50 was measured for CN(C[C@@H]1CN(CCNCc2ccc3c(c2)n(C)c(=O)n3C2CCC(=O)NC2=O)CCO1)C(=O)[C@H]1CC[C@H](n2cc(NC(=O)c3coc(-c4ccnc(NCC5CC5)c4)n3)c(C(F)F)n2)CC1 (stereo partly shown) , tested on OCI-LY10?
< 6.00

Enter reported pIC50 observed with OCI-LY10 for CN(CCN1CCO[C@@H](CCNc2cccc3c2C(=O)N(C2CCC(=O)NC2=O)C3=O)C1)C[C@H]1CC[C@H](n2cc(NC(=O)c3coc(-c4ccnc(NCC5CC5)c4)n3)c(C(F)F)n2)CC1 (stereo partly shown)
7.00 to 7.30
